Experiment: Selectivity index, ratio of IC50 for human K562 cells to IC80 for chloroquine-sensitive Plasmodium falciparum 3D7
Type: toxicity, cell-based
Settings: read-out: Selectivity Index
Record Yes whenever selectivity ratio is at 6 or higher; record No when lower.

Examples from the recorded data:
{"smiles": "O=C(/C=C/c1ccccc1)c1c(O)c2ccccc2oc1=O", "classLabel": "No"}
{"smiles": "COc1ccc(/C=C/C(=O)c2c(O)c3ccccc3oc2=O)cc1OC", "classLabel": "No"}
{"smiles": "CN(C)c1ccc(/C=C/C(=O)c2c(O)c3ccccc3oc2=O)cc1", "classLabel": "Yes"}
{"smiles": "O=C(/C=C/c1ccc(Cl)cc1)c1c(O)c2ccccc2oc1=O", "classLabel": "No"}
{"smiles": "O=C(/C=C/c1ccc([N+](=O)[O-])cc1)c1c(O)c2ccccc2oc1=O", "classLabel": "Yes"}

As a next step, examine the molecule that follows.
## Input Confirm if selectivity ratio reported for the molecule COc1ccc(/C=C/C(=O)c2c(O)c3ccccc3oc2=O)c(OC)c1OC is 6 or above.
## Output No
